Biological target: human NGF (Homo sapiens, UniProt P01138)
Sequence (P01138 122-241): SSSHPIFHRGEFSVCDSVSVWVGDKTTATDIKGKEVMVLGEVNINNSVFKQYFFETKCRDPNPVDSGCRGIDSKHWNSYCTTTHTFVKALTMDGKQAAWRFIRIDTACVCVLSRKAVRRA
Assay: BIAcore screening assay of Fab library clones (koff)
Format: binding
Conditions: Table 6: single CDR H3 or L3 mutation in 8L2-6D5 template
This listing pairs molecules with measured koff.

# molecule, koff [s⁻¹]
rows = [
    ("Y100L: 8L2-6D5 template with CDR H3 mutation Y100L (antibody, V domains shown) VH: QVQLQESGPGLVKPSETLSLTCTVSGFSLIGYDINWIRQPPGKGLEWIGMIWGDGTTDYNSALKSRVTISKDTSKNQFSLKLSSVTAADTAVYYCARGGLYYGTSYYFDYWGQGTLVTVS VL: DIQMTQSPSSLSASVGDRVTITCRASQDISNHLNWYQQKPGKAPKLLIYYISRFHSGVPSRFSGSGSGTDFTFTISSLQPEDIATYYCQQSKTLPYTFGQGTKLEIKRT", 0.0012),
    ("D109N: 8L2-6D5 template with CDR H3 mutation D109N (antibody, V domains shown) VH: QVQLQESGPGLVKPSETLSLTCTVSGFSLIGYDINWIRQPPGKGLEWIGMIWGDGTTDYNSALKSRVTISKDTSKNQFSLKLSSVTAADTAVYYCARGGYYYGTSYYFNYWGQGTLVTVS VL: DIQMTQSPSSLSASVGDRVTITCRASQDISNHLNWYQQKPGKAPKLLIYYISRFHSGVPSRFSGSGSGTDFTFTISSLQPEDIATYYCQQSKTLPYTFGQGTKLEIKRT", 0.0015),
    ("Y106M: 8L2-6D5 template with CDR H3 mutation Y106M (antibody, V domains shown) VH: QVQLQESGPGLVKPSETLSLTCTVSGFSLIGYDINWIRQPPGKGLEWIGMIWGDGTTDYNSALKSRVTISKDTSKNQFSLKLSSVTAADTAVYYCARGGYYYGTSMYFDYWGQGTLVTVS VL: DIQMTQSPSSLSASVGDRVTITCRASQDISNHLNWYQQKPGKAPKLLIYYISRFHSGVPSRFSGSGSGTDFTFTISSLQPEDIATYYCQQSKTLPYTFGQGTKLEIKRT", 0.0027),
    ("Y106T: 8L2-6D5 template with CDR H3 mutation Y106T (antibody, V domains shown) VH: QVQLQESGPGLVKPSETLSLTCTVSGFSLIGYDINWIRQPPGKGLEWIGMIWGDGTTDYNSALKSRVTISKDTSKNQFSLKLSSVTAADTAVYYCARGGYYYGTSTYFDYWGQGTLVTVS VL: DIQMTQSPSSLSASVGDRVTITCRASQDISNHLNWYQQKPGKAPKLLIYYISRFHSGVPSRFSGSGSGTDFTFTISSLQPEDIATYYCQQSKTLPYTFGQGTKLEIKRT", 0.002),
    ("Y110S: 8L2-6D5 template with CDR H3 mutation Y110S (antibody, V domains shown) VH: QVQLQESGPGLVKPSETLSLTCTVSGFSLIGYDINWIRQPPGKGLEWIGMIWGDGTTDYNSALKSRVTISKDTSKNQFSLKLSSVTAADTAVYYCARGGYYYGTSYYFDSWGQGTLVTVS VL: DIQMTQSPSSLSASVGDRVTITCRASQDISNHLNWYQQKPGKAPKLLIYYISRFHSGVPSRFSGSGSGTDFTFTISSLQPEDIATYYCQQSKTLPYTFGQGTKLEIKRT", 0.0015),
]
